- measured_on: human PAC1 (Homo sapiens, UniProt P41586)
- Construct: expressed in transfected cells; membranes)
- Sequence (P41586 21-468): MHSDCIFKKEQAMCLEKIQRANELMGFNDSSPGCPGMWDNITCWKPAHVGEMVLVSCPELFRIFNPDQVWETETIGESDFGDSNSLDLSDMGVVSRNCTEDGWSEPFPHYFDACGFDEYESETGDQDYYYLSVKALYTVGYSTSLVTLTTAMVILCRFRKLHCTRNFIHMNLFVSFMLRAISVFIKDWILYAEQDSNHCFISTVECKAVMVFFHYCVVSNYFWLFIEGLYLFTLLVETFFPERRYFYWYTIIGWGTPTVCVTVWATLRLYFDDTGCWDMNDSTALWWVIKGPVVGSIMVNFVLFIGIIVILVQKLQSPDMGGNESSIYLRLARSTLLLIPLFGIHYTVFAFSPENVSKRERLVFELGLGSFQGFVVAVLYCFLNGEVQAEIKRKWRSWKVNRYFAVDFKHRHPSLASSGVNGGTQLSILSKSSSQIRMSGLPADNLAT
- measurement_protocol: Filter binding assay, 125I-labeled PACAP-27 tracer
- condition_notes: membranes from cells transiently transfected with human PAC1; read-out: Human receptor binding IC50 PAC1
Square brackets hold non-standard residues; d marks the D form. Ends that are not written are not given here. Nle = CCCC[C@H](N)C(=O)O; Orn = NCCC[C@H](N)C(=O)O; Aib = CC(C)(N)C(=O)O
quantity_name: IC50

Data point: P376: cyclic PEGylated VPAC2 receptor peptide agonist (HSDAVFTENYT[Orn]LR[Aib]Q[Nle]AA[Orn]KYLNDL[Orn][Orn]GGPSSGAPPPC; also: cyclic, bridge type and places not given here, PEGylated, site not placed) [Agonist P376] ; IC50 = > 25 µM

Data point: P277: cyclic PEGylated VPAC2 receptor peptide agonist (HSDAVFTENYTKLRKQ[Nle]AAKKYLNDLKQGGPSSGAPPPC; ends and bridges not checked; also: cyclic, bridge type and places not given here, PEGylated, site not placed) [Agonist P277] ; IC50 = > 25 µM

----------
- condition_notes: rat, in vivo, sc, 0.1 mg/kg
Square brackets hold non-standard residues; d marks the D form. Ends that are not written are not given here. Nle = CCCC[C@H](N)C(=O)O; Aib = CC(C)(N)C(=O)O
quantity_name: Vd/F (L/kg)
Write down the numeric answer in L/kg and omit the unit.

Data point: P255: cyclic PEGylated VPAC2 receptor peptide agonist (HSDAVFTENYTKL[Aib]KQ[Nle]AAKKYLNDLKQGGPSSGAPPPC; not fully specified (residue 39); ends and bridges not checked; also: cyclic, bridge type and places not given here, PEGylated, site not placed) [Agonist P255] ; Vd/F = 0.389

Data point: P257: cyclic PEGylated VPAC2 receptor peptide agonist (HSDAVFTENYTKL[Aib]KQ[Nle]AAKKYLNDLKKGGPSSGAPPPC; not fully specified (residue 39); ends and bridges not checked; also: cyclic, bridge type and places not given here, PEGylated, site not placed) [Agonist P257] ; Vd/F = 0.425

Data point: P201: cyclic PEGylated VPAC2 receptor peptide agonist; P200 reacted with methoxy-PEG2-MAL-40K (HSDAVFTENYTKLRKQ[Nle]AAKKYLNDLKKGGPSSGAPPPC(methoxy‑PEG2‑MAL‑40K); ends and bridges not checked; also: cyclic, bridge kind and places not given here) [Agonist P201] ; Vd/F = 0.214

Data point: P348: cyclic PEGylated VPAC2 receptor peptide agonist (HSDAVFTENYTKLR[Aib]Q[Nle]AAKKYLNDLK[Aib]KGGPSSGAPPPC; not fully specified (residue 40); ends and bridges not checked; also: cyclic, bridge type and places not given here, PEGylated, site not placed) [Agonist P348] ; Vd/F = 2.224

Reference source for all entries: patent US20090118167A1
